METHOD_SUMMARY: in vitro
CONDITIONS: human, hela cells, % viability
PROPERTY_MEASURED: viability at 28.5 h, 10 µM (%)

> print(dat)
                                    molecule           property.measured  experimental.result
 1  CCOC(=O)C1CCN(S(=O)(=O)c2ccc(C(C)C)cc2)CC1  viability at 28.5 h, 10 µM                 86.4
 2  CCc1nnc(CN(CC2CCCO2)C2CCC(C)CC2)n1C (stereo not drawn)  viability at 28.5 h, 10 µM                  106
 3  Cc1cc(NS(=O)(=O)c2cc(OCC(N)=O)c(C)cc2Cl)no1  viability at 28.5 h, 10 µM                  103
 4               CN1CCN(c2ccc(C(=O)O)cc2)CC1  viability at 28.5 h, 10 µM                 94.8
 5   Cc1cc(C)c2c(C)nn(-c3ccc(C(=O)O)cc3)c2n1  viability at 28.5 h, 10 µM                 89.6
 6  CC1CCN(Cn2nc(COc3ccccc3)n(-c3ccccc3)c2=S)CC1  viability at 28.5 h, 10 µM                 97.3
 7  CCc1cc(=O)[nH]c(-c2ccc(N3CCOCC3C)nc2)n1 (stereo not drawn)  viability at 28.5 h, 10 µM                 95.7
 8  Cc1nc(NS(=O)(=O)c2ccccc2)sc1NC(=O)Nn1cnnc1  viability at 28.5 h, 10 µM                 85.4
 9  COc1ccc(C(C)C)cc1-c1cn2ccnc2c(Nc2cccc(OC(F)(F)C(F)F)c2)n1  viability at 28.5 h, 10 µM                 95.9
10  NC(=O)CN1CCC2(CCN(C(=O)c3cc(F)c(F)cc3F)C2)C1 (stereo not drawn)  viability at 28.5 h, 10 µM                 86.6
11      COc1cc(NC(=O)N2CCNC(=O)C2)cc(OC)c1OC  viability at 28.5 h, 10 µM                  104
12  COC(=O)CC1C(=O)NCCN1C(=O)COc1ccc(Cl)cc1 (stereo not drawn)  viability at 28.5 h, 10 µM                   80
13  COc1cc2c(cc1OC)C(C(=O)O)CC(=O)N2 (stereo not drawn)  viability at 28.5 h, 10 µM                 87.4
14  CC(Oc1ccc(C#N)cc1)C(=O)NCC(C)(C)N1CCOCC1 (stereo not drawn)  viability at 28.5 h, 10 µM                   90
15  O=C(O)C1CCN(C(=O)CCn2ccc3cc(Br)ccc32)CC1  viability at 28.5 h, 10 µM                  105
16  CC(CC(=O)O)CC(=O)Nc1ccccc1C(=O)O (stereo not drawn)  viability at 28.5 h, 10 µM                 99.2
17  COc1ccc(CCN2C(=O)N[C@@H](CCC(=O)NC3CC3)C2=O)cc1  viability at 28.5 h, 10 µM                  109
18  COCC(=O)N[C@H]1CCN2C(=O)c3cc(-c4cccc(C)c4C)ccc3NC(=O)[C@@H]2C1  viability at 28.5 h, 10 µM                 90.7
19  Cc1ccc(-n2ncc(C(=O)N3CCc4ccccc4C3)c2NC(=O)c2ccco2)cc1C  viability at 28.5 h, 10 µM                  100
20  O=C(O)CNC(=O)/C(=C\c1ccco1)NC(=O)c1ccccc1Cl  viability at 28.5 h, 10 µM                 84.8
21  Cc1cc(F)c(S(=O)(=O)N2CCN(C)CC2)cc1NC(=O)c1cc2ccccc2o1 [CBK034419C]  viability at 28.5 h, 10 µM                   94
22  CC(C)(C)C1CCC(OC(=O)Cn2nnc3ccccc3c2=O)CC1 (stereo not drawn)  viability at 28.5 h, 10 µM                 88.9
23    CCN1CCN(Cc2c(C3CCCC3)[nH]c3ncccc23)CC1  viability at 28.5 h, 10 µM                   97
24             COc1ccc(-c2cnccc2-n2ccnc2)cn1  viability at 28.5 h, 10 µM                  113
25  Cc1cc(COc2nccnc2N2CCN(Cc3ccc(C(C)C)cc3)CC2)no1  viability at 28.5 h, 10 µM                 94.9
26  O=[N+]([O-])c1c(N(CCO)CCO)cc(Cl)c2nonc12  viability at 28.5 h, 10 µM                 92.5
27        O=C(CSc1cc(Cl)ccc1Cl)Nc1cccc(Cl)c1  viability at 28.5 h, 10 µM                  113
28              CC1(C)C(=O)N2CCN=C2c2ccccc21  viability at 28.5 h, 10 µM                 78.6
29  Cc1cc(C(F)(F)F)nc2sc(C(=O)c3ccc4c(c3)OCO4)c(N)c12  viability at 28.5 h, 10 µM                 94.5
30          Cn1c(=O)c2c(nc(NCCN)n2C)n(C)c1=O  viability at 28.5 h, 10 µM                  107
31  CN(C)CCNC(=O)c1ccc(-c2cnc3[nH]c(=O)n(CC4CC4)c3n2)cc1  viability at 28.5 h, 10 µM                 94.6
32  Nn1c(SCC(=O)Nc2ccc3c(c2)OCO3)nnc1-c1ccccn1  viability at 28.5 h, 10 µM                  101
33  CC(Cc1c[nH]c2ccccc12)NC(=O)CN (stereo not drawn) [CBK218213C]  viability at 28.5 h, 10 µM                  100
34      Cn1cc(CCNC(=O)Nc2ccc(N3CCCC3)nc2)cn1  viability at 28.5 h, 10 µM                 92.3
35   Cc1cc(Cl)ccc1CNC(=O)C1=CC(=O)CC(C)(C)O1  viability at 28.5 h, 10 µM                 97.5
36  CN1CCN(C(=O)Cn2c(-c3cccs3)cc3cccnc32)CC1  viability at 28.5 h, 10 µM                   97
37   O=C(O)CNC(=O)Cn1ccc2cc(OCc3ccccc3)ccc21  viability at 28.5 h, 10 µM                 81.2
38  O=C(CC1CCCC1)N1CCCC(c2cc3cccnc3[nH]2)C1 (stereo not drawn)  viability at 28.5 h, 10 µM                 98.6
39           COc1ccc(CNC(=O)CSc2cnn[nH]2)cc1  viability at 28.5 h, 10 µM                 85.6
